Reference for the values: patent US20180186897A1

molecular target: erythrocytes infected with P. falciparum field isolate 10936; experiment: flow cytometry, staining of IEs
So I've got a bunch of binders here, and I need their % parasite recognition values.
Numbers only, in %.

binder | % parasite recognition / %
MGC36 (antibody) VH: EVVLVESGGGLVQPGGSLRLSCEASGFNSRSYWMTWVRQAPGKGLEWVASINQDGTEKNYVDSVKGRFTISRDSAKNSLYLQMSSLRADDTAVYYCARDRFCGGESHLHGEEDLPRPSISAEPDTVIPLGSHVTFVCRGPVGVHTFRLERGWRYNDTEDVSQAGPSESEARFRIDSVREGNAGLYRCIYYIAPKWSEQSDYLELRVKGGDVTWALLTYCGGDGEESDYPMDVWGKGTTVTVSS VL: QTVVTQEPSLTVSPGGTVTLTCASSTGPVTSAYYPNWFQQKPGQAPRSLIYSINKKHSWTPARFSGSLLGGKAALTLSGVQPEDEADYYCLLSCGGAQPWVFGGGTKLTVQ | 2.7

Next, consider the following binder.
[in] Sample MGC33 (antibody) VH: EVHLVESGGGLVQPGGSLRLSCEASGFTFSSYWMTWVRQAPGKGLEWVANINQDGSERYYVDSVKGRFTISRDTVKNSLYLQMNNLRAEDTAVYYCARQRFCSDGSLFHGEDLPRPTISAETGTVISLGSHVTFVCRGPLGVQTFRLERESRSRYSETEDVSQVGPSESEARFRIDSVSEGNAGLYRCIYYKPPKWSEQSDYLELRVKGEDVTWALLTYCGGDRDESDYYMDVWGKGTTVTVSS VL: QTVVTQEPSLTVSPGGTVTLTCASSTGSVTSGSFPNWFQQTPGQAPRSLIYSTTKKHSWTPARFSGSLLGGKAALTVSDTQPEDEAEYYCLLYCGGGQPWVFGGGTKLTVQ — what was its % parasite recognition?
[out] 3.6
